- Tested on: 935938-334-R-J1-PDC spheroids with HUVEC/MSC, viability;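 also: compound exposure lasted seven days before viability was read; percent of vehicle DMSO treated spheroid viability so 100% = untreated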
- test: Anticancer human tumor 935938-334-R-J1-PDC patient-derived small intestine adenocarcinoma cell line growth inhibition [PI3K]
- measurement.parameters: second compound 0.316 µM; first compound 0.03 µM; active compounds read low
- Text: Combinatorial screen of targeted agents with the PI3K inhibitors inavolisib, alpelisib, duvelisib, and copanlisib in multi-cell type tumor spheroids A high-throughput screen of multi-cell type tumor spheroids was designed to identify active combinations of targeted small molecules and PI3K pathway inhibitors. […] Compounds. […] If the clinical Cmax for an agent had not been determined, the highest concentration tested was 10 microM. […]
observable: viability, T/C (%)
Write the answer as a number in %, unit excluded.

Example entries and their recorded answers appear below.
compound | measured.target | obs.value
Cn1cnc2c(F)c(Nc3ccc(Br)cc3Cl)c(C(=O)NOCCO)cc21 + CC(Nc1ccc2c(c1)OCCn1cc(N3C(=O)OCC3C(F)F)nc1-2)C(N)=O | 935938-334-R-J1-PDC spheroids with HUVEC/MSC, viability | 45.3
Cn1cnc2c(F)c(Nc3ccc(Br)cc3Cl)c(C(=O)NOCCO)cc21 + CC(Nc1ncnc2nc[nH]c12)c1cc2cccc(Cl)c2c(=O)n1-c1ccccc1 | 935938-334-R-J1-PDC spheroids with HUVEC/MSC, viability | 70.4
Cn1cnc2c(F)c(Nc3ccc(Br)cc3Cl)c(C(=O)NOCCO)cc21 + COc1c(OCCCN2CCOCC2)ccc2c3n(c(=NC(=O)c4cnc(N)nc4)nc12)CCN3 | 935938-334-R-J1-PDC spheroids with HUVEC/MSC, viability | 21.4

We now examine a further compound.
In: Entry Cn1cnc2c(F)c(Nc3ccc(Br)cc3Cl)c(C(=O)NOCCO)cc21 + Cc1nc(NC(=O)N2CCCC2C(N)=O)sc1-c1ccnc(C(C)(C)C(F)(F)F)c1 : reported viability, T/C = ?
Out: 48.5
